# experimental.target: Zap1 (UniProt P47043)
# Sequence: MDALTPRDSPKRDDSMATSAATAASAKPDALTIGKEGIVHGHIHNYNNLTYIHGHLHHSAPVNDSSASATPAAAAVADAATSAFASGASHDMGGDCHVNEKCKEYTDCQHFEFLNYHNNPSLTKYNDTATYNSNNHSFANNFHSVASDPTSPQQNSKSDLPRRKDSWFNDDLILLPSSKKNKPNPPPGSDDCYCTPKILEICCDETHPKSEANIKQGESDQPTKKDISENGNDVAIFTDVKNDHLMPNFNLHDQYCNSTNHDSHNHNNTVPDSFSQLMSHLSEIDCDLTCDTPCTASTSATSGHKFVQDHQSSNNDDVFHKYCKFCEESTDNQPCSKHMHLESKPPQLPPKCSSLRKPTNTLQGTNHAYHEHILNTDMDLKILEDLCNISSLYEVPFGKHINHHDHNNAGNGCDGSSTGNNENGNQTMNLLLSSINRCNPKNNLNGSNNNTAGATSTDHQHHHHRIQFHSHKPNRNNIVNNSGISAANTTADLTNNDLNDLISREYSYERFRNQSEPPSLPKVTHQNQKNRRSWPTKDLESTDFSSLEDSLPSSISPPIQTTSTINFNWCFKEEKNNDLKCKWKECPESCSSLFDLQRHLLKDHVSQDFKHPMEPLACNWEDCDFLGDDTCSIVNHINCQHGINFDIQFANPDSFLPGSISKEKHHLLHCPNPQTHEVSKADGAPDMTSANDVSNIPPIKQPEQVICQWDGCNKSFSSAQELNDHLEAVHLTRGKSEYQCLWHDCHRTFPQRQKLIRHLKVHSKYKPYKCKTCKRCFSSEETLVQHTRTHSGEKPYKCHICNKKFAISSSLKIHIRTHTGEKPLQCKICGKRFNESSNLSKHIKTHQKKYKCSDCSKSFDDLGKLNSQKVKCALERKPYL
# measurement.protocol: PBM E-score (8-mer binding enrichment) (E-score (-0.5 to 0.5)); higher = stronger / more preferred TF binding
# cond: protein concentration: 200 nM; construct: GST-full length
Whole data set: some 33,000 sequences, median “E-score (-0.5 to 0.5)” near -0.021, cut for the highest 2% near 0.32. What follows is part of a selection rich in the highest values, with near analogues and random picks from the rest.
I would appreciate it if you labelled entries satisfied when PBM E-score is 0.04 or higher, otherwise not satisfied.

{"columns": ["sequence.input", "experimental.target", "label"],
 "data": [
  ["ATGAGCAA", "Zap1 (UniProt P47043)", "not satisfied"],
  ["GGAGTTAA", "Zap1 (UniProt P47043)", "not satisfied"],
  ["CAAGGGTG", "Zap1 (UniProt P47043)", "satisfied"],
  ["AAATAGCA", "Zap1 (UniProt P47043)", "not satisfied"],
  ["ATGCGTTC", "Zap1 (UniProt P47043)", "not satisfied"],
  ["AACCACTC", "Zap1 (UniProt P47043)", "satisfied"],
  ["CGGGGGTC", "Zap1 (UniProt P47043)", "not satisfied"],
  ["CACCACTG", "Zap1 (UniProt P47043)", "not satisfied"],
  ["GCCCACCA", "Zap1 (UniProt P47043)", "not satisfied"],
  ["GGGTCCAC", "Zap1 (UniProt P47043)", "not satisfied"],
  ["CACCACTA", "Zap1 (UniProt P47043)", "satisfied"],
  ["ATGGTTGC", "Zap1 (UniProt P47043)", "satisfied"],
  ["ATGGTTAG", "Zap1 (UniProt P47043)", "satisfied"],
  ["CTGGTTAC", "Zap1 (UniProt P47043)", "satisfied"],
  ["AACCACCA", "Zap1 (UniProt P47043)", "satisfied"],
  ["ACCCACCC", "Zap1 (UniProt P47043)", "satisfied"],
  ["CCAGGGCA", "Zap1 (UniProt P47043)", "not satisfied"],
  ["AAAGGGGG", "Zap1 (UniProt P47043)", "not satisfied"],
  ["CAGGGTCG", "Zap1 (UniProt P47043)", "satisfied"],
  ["CGACAGCG", "Zap1 (UniProt P47043)", "not satisfied"],
  ["CCGGGGTC", "Zap1 (UniProt P47043)", "satisfied"],
  ["GATTCTTA", "Zap1 (UniProt P47043)", "satisfied"],
  ["CCTGACCG", "Zap1 (UniProt P47043)", "not satisfied"],
  ["CAGGGTCA", "Zap1 (UniProt P47043)", "satisfied"],
  ["ACCCACCA", "Zap1 (UniProt P47043)", "satisfied"],
  ["CCAAGTTA", "Zap1 (UniProt P47043)", "satisfied"],
  ["AACCACAT", "Zap1 (UniProt P47043)", "satisfied"],
  ["CCGGACCG", "Zap1 (UniProt P47043)", "not satisfied"],
  ["CACCACAA", "Zap1 (UniProt P47043)", "satisfied"],
  ["AACCAAGT", "Zap1 (UniProt P47043)", "satisfied"],
  ["AAGGGGGT", "Zap1 (UniProt P47043)", "not satisfied"],
  ["TCCTACCA", "Zap1 (UniProt P47043)", "not satisfied"],
  ["CACCACCC", "Zap1 (UniProt P47043)", "satisfied"],
  ["GAGGGTTA", "Zap1 (UniProt P47043)", "satisfied"],
  ["CTATTCGA", "Zap1 (UniProt P47043)", "not satisfied"],
  ["ACCATTTC", "Zap1 (UniProt P47043)", "satisfied"],
  ["GAGGGGTA", "Zap1 (UniProt P47043)", "satisfied"],
  ["CCAGGGCG", "Zap1 (UniProt P47043)", "not satisfied"],
  ["CCCCACCG", "Zap1 (UniProt P47043)", "satisfied"],
  ["AGGGGTGA", "Zap1 (UniProt P47043)", "satisfied"],
  ["AACCACAG", "Zap1 (UniProt P47043)", "satisfied"],
  ["CCCCACCC", "Zap1 (UniProt P47043)", "satisfied"],
  ["ACAAGGGC", "Zap1 (UniProt P47043)", "not satisfied"],
  ["ACCCACAA", "Zap1 (UniProt P47043)", "satisfied"],
  ["CAGATGAA", "Zap1 (UniProt P47043)", "not satisfied"],
  ["CAGGGTCC", "Zap1 (UniProt P47043)", "satisfied"]
]}

---

// reported PBM E-score for each item listed
# experimental.target: Zap1 (UniProt P47043)
# Sequence: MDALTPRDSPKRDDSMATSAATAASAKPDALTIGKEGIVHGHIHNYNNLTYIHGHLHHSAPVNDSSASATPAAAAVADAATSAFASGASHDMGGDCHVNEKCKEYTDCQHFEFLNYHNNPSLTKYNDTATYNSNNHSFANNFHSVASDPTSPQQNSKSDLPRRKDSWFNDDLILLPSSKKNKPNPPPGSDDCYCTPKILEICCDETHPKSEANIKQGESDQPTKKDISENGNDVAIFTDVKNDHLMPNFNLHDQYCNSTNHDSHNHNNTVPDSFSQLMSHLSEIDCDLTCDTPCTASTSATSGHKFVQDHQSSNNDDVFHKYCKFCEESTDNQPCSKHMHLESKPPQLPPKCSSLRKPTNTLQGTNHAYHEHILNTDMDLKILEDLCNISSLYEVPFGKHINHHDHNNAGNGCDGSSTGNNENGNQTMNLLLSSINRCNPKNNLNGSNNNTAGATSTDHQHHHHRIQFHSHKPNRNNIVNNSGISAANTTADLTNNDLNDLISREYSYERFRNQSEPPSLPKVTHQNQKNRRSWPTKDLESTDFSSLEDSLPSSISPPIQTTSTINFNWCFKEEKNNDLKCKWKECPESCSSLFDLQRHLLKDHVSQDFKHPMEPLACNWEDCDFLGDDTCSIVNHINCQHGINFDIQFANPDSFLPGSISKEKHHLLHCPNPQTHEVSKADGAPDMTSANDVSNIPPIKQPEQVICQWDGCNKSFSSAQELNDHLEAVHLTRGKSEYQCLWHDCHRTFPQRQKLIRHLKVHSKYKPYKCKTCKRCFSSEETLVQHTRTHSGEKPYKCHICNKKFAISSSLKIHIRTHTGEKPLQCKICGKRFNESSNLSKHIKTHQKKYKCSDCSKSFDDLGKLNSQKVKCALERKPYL
# measurement.protocol: PBM E-score (8-mer binding enrichment) (E-score (-0.5 to 0.5)); higher = stronger / more preferred TF binding
# cond: protein concentration: 200 nM; construct: GST-full length
In all, about 33,000 sequences were measured (“E-score (-0.5 to 0.5)”: median about -0.021, highest 2% from about 0.32 on). Many of the other results were omitted from the sample, so the highest values are more common in it than they were.

{"columns": ["sequence.input", "PBM E-score"],
 "data": [
  ["AGAACCAC", 0.285],
  ["GGAGGTTA", 0.36],
  ["CCCCACGC", -0.0232],
  ["TCGCCACA", -0.04],
  ["CAAGTGCG", -0.0607],
  ["TCTGAGAA", -0.0814],
  ["CAAACCAC", 0.0159],
  ["AGTCCTCG", -0.272],
  ["CGTAGTTC", -0.125],
  ["GAAACCAC", 0.116],
  ["AAAACCAC", 0.197],
  ["GGCCTCGA", 0.00761],
  ["GGAGGTAA", 0.289],
  ["GCAAGATA", 0.0727],
  ["GGAGGTGA", 0.13],
  ["CACAGTTC", -0.0558],
  ["GTAACCAC", 0.431],
  ["CGAGGTTC", 0.22],
  ["CGAGGTTA", 0.455],
  ["ATAACCAC", 0.46],
  ["AGATCGCA", -0.127],
  ["CGCTACCC", 0.302]
]}
